Origin of measurements: the supplement of paper PMC10981050

Quick reference for cell viability among some compounds
system: OCI-AML2; assay: cell viability relative to vehicle control; higher = less cytotoxic; details: 10 µM; SRSF2 genotype: wt/wt;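 further: after 48 h exposure read by CellTiter-Glo luminescence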
Give the value, in units of %, as a plain number.

Task: Hello, I am looking for reported cell viability with OCI-AML2 for COc1ccc(Cl)cc1NC(=O)Nc1cc(C)nc2ccccc12 . Could you help?
Result: 74.1

Task: One more compound: OCc1cc([C@@H](O)CNCCCCCCOCCOCc2c(Cl)cccc2Cl)ccc1O [Vilanterol Trifenate]
Result: 76.3

Task: One more compound: CCc1cncnc1N1CCN(Cc2nc3ccc(C(F)(F)F)cc3[nH]2)CC1
Result: 43.3

Task: One more compound: Nc1nc2ccc(OC(F)(F)F)cc2s1 [Riluzole (Rilutek)]
Result: 94.8

More entries:
Task: Hello, I am looking for reported cell viability with OCI-AML2 for Cc1c(C(=O)Nc2ccc(N3C[C@@H](C)O[C@@H](C)C3)nc2)cccc1-c1ccc(OC(F)(F)F)cc1 [LDE225 (NVP-LDE225, Erismodegib)] . Could you help?
Result: 85

Task: One more compound: C=C1[C@@H]2CC[C@@H](C2)C1(C)C [Camphene]
Result: 97.1

Task: One more compound: CC(C)C[C@@H]1NC(=O)[C@@H](C(C)C)NC(=O)[C@@H]2CCCN2C(=O)[C@@H](CC(=O)O)NC(=O)[C@@H](Cc2c[nH]c3ccccc23)NC1=O
Result: 103

Task: One more compound: COc1cc(Nc2ncc3c(n2)-c2ccc(Cl)cc2C(c2c(F)cccc2OC)=NC3)ccc1C(=O)O [MLN8237 (Alisertib)]
Result: 44.5

* * *

Quick reference for cell viability among some compounds
tested on: K562; test: cell viability relative to vehicle control; higher = less cytotoxic; settings: 10 µM; SRSF2 genotype: SRSF2 wt/wt
Give the value, in units of %, as a plain number.

Use these answered entries as a reference point.
Task: // query cell viability value for entry COc1cc2c(cc1OC)-c1c(C)c3ccc(OC)c(OC)c3c[n+]1CC2 [Dehydrocorydalin]
Result: 90.6

Task: One more compound: CC1CCc2c(N3CCC(O)CC3)c(F)cc3c(=O)c(C(=O)O)cn1c23 (stereo not drawn)
Result: 92.4

Task: One more compound: Cc1ccc(-c2c(-c3nn(C)c4ncnc(N5CC[C@H](N6CCCCC6)C5)c34)cnn2C)cc1
Result: 105

Task: One more compound: O=NO [Sodium Nitrite]
Result: 95.9

Task: One more compound: O=C1C(=Cc2cccnc2)C(=O)c2ccccc21
Result: 116

Task: One more compound: COc1cccc(Nc2c(C(N)=O)cnc3c(C)cc(S(=O)(=O)c4cccc(C(=O)N(C)C)c4)cc23)c1
Result: 108

Task: One more compound: O=c1c2cc(O[C@@H]3O[C@H](CO)[C@@H](O)[C@H](O)[C@H]3O)c(O)cc2oc2cc(O)c([C@@H]3O[C@H](CO)[C@@H](O)[C@H](O)[C@H]3O)c(O)c12
Result: 97

Consider the record given below.
Task: // query cell viability value for entry C=CS(=O)(=O)NC1CCN(C(=O)CNc2cc(I)c(Cl)cc2OC)CC1 [K-Ras(G12C) inhibitor 9]
Result: 82.8

* * *

Quick reference for cell viability among some compounds
tested on: MARIMO; test: cell viability relative to vehicle control; higher = less cytotoxic; conditions: 10 µM; SRSF2 genotype: SRSF2 P95H/wt
# output: number + unit

Use these answered entries as a reference point.
Task: Hello, I am looking for reported cell viability with MARIMO for O=C1CN(/N=C/c2ccc(-c3ccc([N+](=O)[O-])cc3)o2)C(=O)N1 [Dantrolene sodium hemiheptahydrate] . Could you help?
Result: 96.4%

Task: One more compound: CNC(=O)[C@H](Cc1ccccc1)NC(=O)[C@H](CC(C)C)[C@H](CSc1cccs1)C(=O)NO [Batimastat (BB-94)]
Result: 79%

Task: One more compound: CCOC(=O)c1cc2ccccc2oc1=O [Ethyl Coumarin-3-carboxylate]
Result: 94.3%

Task: One more compound: O=C(/C=C/c1ccc(O)cc1)OC[C@H]1O[C@@H](Oc2c(-c3ccc(O)cc3)oc3cc(O)cc(O)c3c2=O)[C@H](O)[C@@H](O)[C@@H]1O [Tiliroside]
Result: 98.9%

More entries:
Task: Hello, I am looking for reported cell viability with MARIMO for CC(C)=CCOc1ccc(/C=C/C(=O)c2ccc(OCC=C(C)C)cc2OCC(=O)O)cc1 [Sofalcone] . Could you help?
Result: 105%

Task: One more compound: Clc1cccc(-c2nnnn2Cc2cccnc2)c1Cl
Result: 102%

Task: One more compound: CCc1cc(C(N)=S)ccn1 [Ethionamide]
Result: 97%

Task: One more compound: CC(C)=CC(O)C/C(C)=C/COc1c2ccoc2cc2oc(=O)ccc12 (stereo not given) [Notopterol]
Result: 64.7%

Task: One more compound: O=C(NOCC1CC1)c1ccc(F)c(F)c1Nc1ccc(I)cc1Cl
Result: 37.4%

Task: One more compound: O=C(O)c1cc(O)cc(Cl)c1 [3-chloro-5-hydroxybenzoic Acid]
Result: 96.3%

Task: One more compound: CO[C@]1(CC[C@@H](C)CO[C@@H]2O[C@H](CO)[C@@H](O)[C@H](O)[C@H]2O)O[C@H]2C[C@H]3[C@@H]4CC=C5C[C@@H](O[C@@H]6O[C@H](CO)[C@@H](O[C@@H]7O[C@@H](C)[C@H](O)[C@@H](O)[C@H]7O)[C@H](O)[C@H]6O[C@@H]6O[C@@H](C)[C@H](O)[C@@H](O)[C@H]6O)CC[C@]5(C)[C@H]4CC[C@]3(C)[C@H]2[C@@H]1C [Methylprotodioscin]
Result: 0.54%

Task: One more compound: CCc1ccc(OCc2ccccc2C(=O)Nc2ccc3nc(C)cc(N)c3c2)cc1
Result: 0.43%

Task: One more compound: Cn1cc(C[C@@H](N)C(=O)O)c2ccccc21 [Indoximod (NLG-8189)]
Result: 98.4%

Task: One more compound: C[C@]12CC[C@@H]3c4ccc(O)cc4CC[C@H]3[C@@H]1CC[C@@H]2O [Estradiol]
Result: 93.2%

Task: One more compound: O=C(Nc1cnn2ccc(N3CCC[C@@H]3c3cc(F)ccc3F)nc12)N1CC[C@H](O)C1 [LOXO-101(sulfate)]
Result: 113%
